Below: a set of entries, each annotated with reported pIC50.
System: OVCAR3 cells
assay.details: Inhibition of cell proliferation, CellTiter-Glo, OVCAR3
Type: cell-based
assay.context: Homo sapiens, OVCAR-3, 72 h, Efficacy Example 2 (Table 2), 72 h incubation
Experimental: The compounds were each prepared with 100% DMSO into 10 mM mother liquor. HCC70 cells and OVCAR3 cells were digested and counted. Cells were diluted to an appropriate concentration according to cell density. […] The 96-well plate was equilibrated to room temperature before detection. […] The mixture was incubated at room temperature for 60 min to stabilize […] signals. Fluorescence values were read on ENVISION. (1) Data was analyzed by GraphPad Prism 5 […]
// scale note: pIC50 = -log10(conc_M); give the bare number

>>> print(df.to_string())
                         chemical_structure  experimental_target   val
0  CC(C)Nc1cc(NC2CCN(C(=O)O[C@H]3CCN(C(=O)/C=C/CN(C)C)C3)CC2)c2ncn(C(C)C)c2n1         OVCAR3 cells  6.94

What the record says about `Cc1nc(NC2CCN(C(=O)O[C@H]3CCN(C(=O)/C=C/CN(C)C)C3)CC2)c2ncn(C(C)C)c2n1` : pIC50 is 6.63

Reported pIC50 ( `Cc1nc(NC2CCN(C(=O)O[C@H]3CCN(C(=O)/C=C/CN(C)C)C3)CC2)c2ncc(C(C)C)n2n1` ) = 7.52

Entry under test: `CC(C)Oc1nc(NC2CCN(C(=O)O[C@H]3CCN(C(=O)/C=C/CN(C)C)C3)CC2)c2ncc(C(C)C)n2n1` . Its pIC50 was 7.31

response.value for `CC(C)c1cc(NC2CCN(C(=O)O[C@H]3CCN(C(=O)/C=C/CN(C)C)C3)CC2)c2ncn(C(C)C)c2n1` (field: pIC50) = 7.14
